# TEST TARGET: plasma purified human complement protein C3 (human) (UniProt P01024)
# Sequence (P01024 23-667, chain 1 of 2): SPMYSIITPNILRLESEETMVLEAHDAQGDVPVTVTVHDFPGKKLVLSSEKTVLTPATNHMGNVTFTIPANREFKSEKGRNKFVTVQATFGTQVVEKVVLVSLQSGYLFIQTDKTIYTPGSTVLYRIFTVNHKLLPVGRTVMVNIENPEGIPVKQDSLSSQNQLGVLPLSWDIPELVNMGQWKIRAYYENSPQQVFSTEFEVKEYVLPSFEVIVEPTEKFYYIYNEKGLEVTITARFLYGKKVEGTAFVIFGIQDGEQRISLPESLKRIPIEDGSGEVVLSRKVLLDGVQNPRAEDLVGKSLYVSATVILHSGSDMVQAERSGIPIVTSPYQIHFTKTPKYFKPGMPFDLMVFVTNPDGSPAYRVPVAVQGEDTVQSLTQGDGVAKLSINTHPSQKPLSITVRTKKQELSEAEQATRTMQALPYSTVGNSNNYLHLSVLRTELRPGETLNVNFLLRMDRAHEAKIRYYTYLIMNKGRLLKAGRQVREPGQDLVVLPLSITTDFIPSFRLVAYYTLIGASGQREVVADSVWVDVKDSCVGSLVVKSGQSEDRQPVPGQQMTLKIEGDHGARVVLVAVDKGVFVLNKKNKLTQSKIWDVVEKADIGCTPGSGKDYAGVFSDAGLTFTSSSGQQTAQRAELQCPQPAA
# Sequence (P01024 672-1663, chain 2 of 2): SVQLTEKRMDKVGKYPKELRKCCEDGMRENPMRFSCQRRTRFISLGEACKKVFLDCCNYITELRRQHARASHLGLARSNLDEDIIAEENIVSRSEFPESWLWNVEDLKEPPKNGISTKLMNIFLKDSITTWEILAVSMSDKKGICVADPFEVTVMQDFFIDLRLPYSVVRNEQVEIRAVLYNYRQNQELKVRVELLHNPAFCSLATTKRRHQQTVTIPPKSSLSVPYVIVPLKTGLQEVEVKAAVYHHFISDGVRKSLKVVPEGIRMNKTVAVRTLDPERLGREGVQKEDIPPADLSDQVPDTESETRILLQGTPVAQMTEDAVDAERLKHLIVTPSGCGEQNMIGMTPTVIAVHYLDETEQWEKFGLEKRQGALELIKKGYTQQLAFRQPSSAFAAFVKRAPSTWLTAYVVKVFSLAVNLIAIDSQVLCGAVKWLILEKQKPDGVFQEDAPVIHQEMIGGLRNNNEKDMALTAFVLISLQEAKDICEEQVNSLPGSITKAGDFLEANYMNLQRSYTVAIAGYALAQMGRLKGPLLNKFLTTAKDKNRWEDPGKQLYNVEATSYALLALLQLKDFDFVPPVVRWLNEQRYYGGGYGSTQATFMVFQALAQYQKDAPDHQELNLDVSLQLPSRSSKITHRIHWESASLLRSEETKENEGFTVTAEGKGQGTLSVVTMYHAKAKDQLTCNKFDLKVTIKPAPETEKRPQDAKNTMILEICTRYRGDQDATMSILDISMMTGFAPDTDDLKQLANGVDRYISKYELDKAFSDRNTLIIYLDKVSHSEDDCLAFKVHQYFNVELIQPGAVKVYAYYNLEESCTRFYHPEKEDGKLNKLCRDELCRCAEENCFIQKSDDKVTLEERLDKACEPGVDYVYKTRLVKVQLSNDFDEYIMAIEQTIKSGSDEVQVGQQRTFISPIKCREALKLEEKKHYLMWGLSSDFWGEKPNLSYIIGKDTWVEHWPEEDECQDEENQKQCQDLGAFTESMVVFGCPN
# PROCEDURE DETAILS: cell-based or functional assay
# Fulfilled = EC50 hC3 cleavage below 70 nM (exclusive); Not fulfilled = EC50 hC3 cleavage at/above 70 nM

BINDER | LABEL VALUE
MTSP-1 protease domain I41S/F97del/T98S/F99L/C122S/Q192S (enzyme) VVGGTDADEGEWPWQVSLHALGQGHSCGASLISPNWLVSAAHCYIDDRGFRYSDPTQWTAFLGLHDQSQRSAPGVQERRLKRIISHPFFNDSLDYDIALLELEKPAEYSSMVRPISLPDASHVFPAGKAIWVTGWGHTQYGGTGALILQKGEIRVINQTTCENLLPQQITPRMMCVGFLSGGVDSCSGDSGGPLSSVEADGRIFQAGVVSWGDGCAQRNKPGVYTRLPLFRDWIKENTGV | Fulfilled
MTSP-1 protease domain I41S/F97L/F99L/C122S/G151N/Q192G/D217V (enzyme) VVGGTDADEGEWPWQVSLHALGQGHSCGASLISPNWLVSAAHCYIDDRGFRYSDPTQWTAFLGLHDQSQRSAPGVQERRLKRIISHPFFNDLTLDYDIALLELEKPAEYSSMVRPISLPDASHVFPAGKAIWVTGWGHTQYGGTNALILQKGEIRVINQTTCENLLPQQITPRMMCVGFLSGGVDSCGGDSGGPLSSVEADGRIFQAGVVSWGVGCAQRNKPGVYTRLPLFRDWIKENTGV | Fulfilled
MTSP-1 protease domain I41E/F99L/C122S/G151N/Q175R/Q192H (enzyme) VVGGTDADEGEWPWQVSLHALGQGHECGASLISPNWLVSAAHCYIDDRGFRYSDPTQWTAFLGLHDQSQRSAPGVQERRLKRIISHPFFNDFTLDYDIALLELEKPAEYSSMVRPISLPDASHVFPAGKAIWVTGWGHTQYGGTNALILQKGEIRVINQTTCENLLPQRITPRMMCVGFLSGGVDSCHGDSGGPLSSVEADGRIFQAGVVSWGDGCAQRNKPGVYTRLPLFRDWIKENTGV | Not fulfilled
MTSP-1 protease domain I41S/D60bT/F60eS/Y60gW/ins97aV/F97D/T98P/F99L/C122S/G151H/Q175L/Q192E (enzyme) VVGGTDADEGEWPWQVSLHALGQGHSCGASLISPNWLVSAAHCYIDTRGSRWSDPTQWTAFLGLHDQSQRSAPGVQERRLKRIISHPFFNDDVPLDYDIALLELEKPAEYSSMVRPISLPDASHVFPAGKAIWVTGWGHTQYGGTHALILQKGEIRVINQTTCENLLPQLITPRMMCVGFLSGGVDSCEGDSGGPLSSVEADGRIFQAGVVSWGDGCAQRNKPGVYTRLPLFRDWIKENTGV | Fulfilled
MTSP-1 protease domain F97Q/F99L/C122S/Q175N/Q192V/D217G (enzyme) VVGGTDADEGEWPWQVSLHALGQGHICGASLISPNWLVSAAHCYIDDRGFRYSDPTQWTAFLGLHDQSQRSAPGVQERRLKRIISHPFFNDQTLDYDIALLELEKPAEYSSMVRPISLPDASHVFPAGKAIWVTGWGHTQYGGTGALILQKGEIRVINQTTCENLLPQNITPRMMCVGFLSGGVDSCVGDSGGPLSSVEADGRIFQAGVVSWGGGCAQRNKPGVYTRLPLFRDWIKENTGV | Not fulfilled
MTSP-1 protease domain Q38L/I41R/Y60gF/F99L/C122S/G151N/Q192A (enzyme) VVGGTDADEGEWPWQVSLHALGLGHRCGASLISPNWLVSAAHCYIDDRGFRFSDPTQWTAFLGLHDQSQRSAPGVQERRLKRIISHPFFNDFTLDYDIALLELEKPAEYSSMVRPISLPDASHVFPAGKAIWVTGWGHTQYGGTNALILQKGEIRVINQTTCENLLPQQITPRMMCVGFLSGGVDSCAGDSGGPLSSVEADGRIFQAGVVSWGDGCAQRNKPGVYTRLPLFRDWIKENTGV | Not fulfilled
MTSP-1 protease domain I41G/F97L/F99L/C122S/G151N/Q192V/D217L (enzyme) VVGGTDADEGEWPWQVSLHALGQGHGCGASLISPNWLVSAAHCYIDDRGFRYSDPTQWTAFLGLHDQSQRSAPGVQERRLKRIISHPFFNDLTLDYDIALLELEKPAEYSSMVRPISLPDASHVFPAGKAIWVTGWGHTQYGGTNALILQKGEIRVINQTTCENLLPQQITPRMMCVGFLSGGVDSCVGDSGGPLSSVEADGRIFQAGVVSWGLGCAQRNKPGVYTRLPLFRDWIKENTGV | Not fulfilled
MTSP-1 protease domain Q38H/I41S/D60bT/F60eS/Y60gW/D96Y/F97R/ins97aD/T98G/F99L/C122S/G151H/Q175L/Q192D (enzyme) VVGGTDADEGEWPWQVSLHALGHGHSCGASLISPNWLVSAAHCYIDTRGSRWSDPTQWTAFLGLHDQSQRSAPGVQERRLKRIISHPFFNYRDGLDYDIALLELEKPAEYSSMVRPISLPDASHVFPAGKAIWVTGWGHTQYGGTHALILQKGEIRVINQTTCENLLPQLITPRMMCVGFLSGGVDSCDGDSGGPLSSVEADGRIFQAGVVSWGDGCAQRNKPGVYTRLPLFRDWIKENTGV | Fulfilled
MTSP-1 protease domain I41S/F99M/C122S/G151N/Q175G/Q192R (enzyme) VVGGTDADEGEWPWQVSLHALGQGHSCGASLISPNWLVSAAHCYIDDRGFRYSDPTQWTAFLGLHDQSQRSAPGVQERRLKRIISHPFFNDFTMDYDIALLELEKPAEYSSMVRPISLPDASHVFPAGKAIWVTGWGHTQYGGTNALILQKGEIRVINQTTCENLLPQGITPRMMCVGFLSGGVDSCRGDSGGPLSSVEADGRIFQAGVVSWGDGCAQRNKPGVYTRLPLFRDWIKENTGV | Not fulfilled
